target: L-1 (Stenotrophomonas maltophilia, UniProt P52700); assay: Indirect reagent disk test, antibiotic inactivation; assay type: cell-based; conditions: enzyme L-1; indirect method
Sequence (P52700 34-290): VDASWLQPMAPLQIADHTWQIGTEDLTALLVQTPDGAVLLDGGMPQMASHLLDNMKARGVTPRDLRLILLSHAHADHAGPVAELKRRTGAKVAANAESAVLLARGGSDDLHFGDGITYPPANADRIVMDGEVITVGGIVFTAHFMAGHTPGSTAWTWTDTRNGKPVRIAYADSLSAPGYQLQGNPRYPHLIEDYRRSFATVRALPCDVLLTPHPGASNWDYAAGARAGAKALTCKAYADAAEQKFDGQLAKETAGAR
quantity: Reagent disk test result (indentation of inhibition zone = antibiotic inactivation)

Item CC(C)(O/N=C(\C(=O)N[C@@H]1C(=O)N2C(C(=O)[O-])=C(C[n+]3ccccc3)CS[C@H]12)c1csc(N)n1)C(=O)O ; assay system L-1 (Stenotrophomonas maltophilia, UniProt P52700); Reagent disk test result (indentation of inhibition zone = antibiotic inactivation) reported as N

The value of Reagent disk test result (indentation of inhibition zone = antibiotic inactivation) recorded for CO[C@@]1(NC(=O)Cc2cccs2)C(=O)N2C(C(=O)O)=C(COC(N)=O)CS[C@@H]21 when tested on L-1 (Stenotrophomonas maltophilia, UniProt P52700) reads N

Recorded Reagent disk test result (indentation of inhibition zone = antibiotic inactivation) for CO/N=C(\C(=O)N[C@@H]1C(=O)N2C(C(=O)O)=C(CSc3nc(=O)c(O)nn3C)CS[C@H]12)c1csc(N)n1 on L-1 (Stenotrophomonas maltophilia, UniProt P52700) was N

---

target: PSE-1 (Pseudomonas aeruginosa); experiment: Indirect reagent disk test, antibiotic inactivation; assay type: cell-based; conditions: enzyme PSE-1; indirect method
Sequence (Q03170 18-288): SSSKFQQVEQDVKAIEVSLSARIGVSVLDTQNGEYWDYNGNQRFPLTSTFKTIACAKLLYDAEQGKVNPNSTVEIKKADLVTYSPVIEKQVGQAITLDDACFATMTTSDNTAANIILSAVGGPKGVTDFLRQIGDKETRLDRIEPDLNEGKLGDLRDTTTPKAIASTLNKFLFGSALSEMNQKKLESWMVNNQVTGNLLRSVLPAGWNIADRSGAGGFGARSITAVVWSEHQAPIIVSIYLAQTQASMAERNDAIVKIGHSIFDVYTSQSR
quantity: Reagent disk test result (indentation of inhibition zone = antibiotic inactivation)

Reagent disk test result (indentation of inhibition zone = antibiotic inactivation) for CO/N=C(\C(=O)N[C@@H]1C(=O)N2C(C(=O)O)=C(CSc3nc(=O)c(O)nn3C)CS[C@H]12)c1csc(N)n1 is N

The molecule listed as CO[C@@]1(NC(=O)Cc2cccs2)C(=O)N2C(C(=O)O)=C(COC(N)=O)CS[C@@H]21 shows Reagent disk test result (indentation of inhibition zone = antibiotic inactivation) equal to N^n

Input CO/N=C(\C(=O)N[C@@H]1C(=O)N2C(C(=O)O)=C(COC(C)=O)CS[C@H]12)c1csc(N)n1 . Output Reagent disk test result (indentation of inhibition zone = antibiotic inactivation): N

Lab note: measured Reagent disk test result (indentation of inhibition zone = antibiotic inactivation) of CC(C)(O/N=C(\C(=O)N[C@@H]1C(=O)N2C(C(=O)[O-])=C(C[n+]3ccccc3)CS[C@H]12)c1csc(N)n1)C(=O)O was N

Value of measured Reagent disk test result (indentation of inhibition zone = antibiotic inactivation) for the entry C[C@H]1[C@H](NC(=O)/C(=N\OC(C)(C)C(=O)O)c2csc(N)n2)C(=O)N1S(=O)(=O)O : N

Read the next record carefully.
Short answer for CO[C@@]1(NC(=O)CSCC#N)C(=O)N2C(C(=O)O)=C(CSc3nnnn3C)CS[C@@H]21 : Reagent disk test result (indentation of inhibition zone = antibiotic inactivation) was P^m

---

biological target: SHV-1 (Klebsiella pneumoniae); assay: Indirect reagent disk test, antibiotic inactivation; type: cell-based; details: enzyme SHV-1; indirect method
Sequence (P0AD64 22-286): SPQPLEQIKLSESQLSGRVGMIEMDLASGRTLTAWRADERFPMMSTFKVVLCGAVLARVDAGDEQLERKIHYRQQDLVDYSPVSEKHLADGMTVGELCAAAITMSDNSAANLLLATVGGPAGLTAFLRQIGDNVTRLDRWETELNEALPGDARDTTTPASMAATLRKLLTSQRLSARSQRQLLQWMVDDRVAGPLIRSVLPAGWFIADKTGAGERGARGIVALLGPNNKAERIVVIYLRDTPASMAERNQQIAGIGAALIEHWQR
quantity: Reagent disk test result (indentation of inhibition zone = antibiotic inactivation)

Consider CO[C@@]1(NC(=O)Cc2cccs2)C(=O)N2C(C(=O)O)=C(COC(N)=O)CS[C@@H]21 [FOX, cefoxitin] . Its measured Reagent disk test result (indentation of inhibition zone = antibiotic inactivation) is N

Looking up CC(C)(O/N=C(\C(=O)N[C@@H]1C(=O)N2C(C(=O)[O-])=C(C[n+]3ccccc3)CS[C@H]12)c1csc(N)n1)C(=O)O [Ceftazidime, ceftazidime] , I found its Reagent disk test result (indentation of inhibition zone = antibiotic inactivation) recorded as N

So, C[C@@H](O)[C@H]1C(=O)N2C(C(=O)O)=C(S[C@@H]3CN[C@H](C(=O)N(C)C)C3)[C@H](C)[C@H]12 [MEM, meropenem] ? Its Reagent disk test result (indentation of inhibition zone = antibiotic inactivation) was N

The molecule identified as C[C@H]1[C@H](NC(=O)/C(=N\OC(C)(C)C(=O)O)c2csc(N)n2)C(=O)N1S(=O)(=O)O [Aztreonam, aztreonam] registered its Reagent disk test result (indentation of inhibition zone = antibiotic inactivation) at N

Provenance of the data: patent US7452691B2
